# Test system: SK-MEL-2 melanoma
# protocol-description: NCI tumour cell line growth inhibition, 48 h
molecules and their reported TGI

Worked set:
CCOC(=O)/C=C/c1ccc([N+](=O)[O-])o1 | 36.8 µM
C[C@@H]1CC2(C[C@@H](C)C3[C@@H](CC4(C)CCCC5C6=CC(O)(CC[C@]34C)OC6=CC(=O)OC5(C)C)O2)OC1=O (stereo partly drawn) | > 100 µM

The value of TGI measured for the molecule C/C(=N/NC(N)=S)C(CN1CCOCC1)C(C1=C(O)c2ccccc2OC1)c1ccccc1 (stereo not drawn) turned out to be > 100 µM

The value of TGI measured for the molecule `Cn1cc(-c2csc(-c3ccc(Cl)cc3)n2)c2cccnc21` turned out to be 42.5 µM

The value of TGI measured for the molecule `Cc1ccc(N=Nc2c(O)ccc3ccccc23)c(C)c1` turned out to be > 100 µM

The value of TGI measured for the molecule CC(Cl)(CCC(Cl)C(C)(C)Cl)C(=O)CBr (stereo not drawn) turned out to be 30.3 µM

The value of TGI measured for the molecule `C(=Nc1ccc(-c2nc3ccccc3s2)cc1)c1cccs1` turned out to be > 100 µM

The value of TGI measured for the molecule `NCCOCCOCC(=O)O` turned out to be > 100 µM

The value of TGI measured for the molecule `Cc1c(C(=O)O)sc2nc[nH]c(=O)c12` turned out to be > 100 µM

The value of TGI measured for the molecule `Cc1cc(C)c(-c2c(O)c(Br)c(-c3c(C)cc(C)c(Br)c3C)c(O)c2Br)c(C)c1Br` turned out to be 6.2 µM

The value of TGI measured for the molecule Nc1ccccc1SC(/C=C/NNC1=NC(c2ccccc2)C(c2ccccc2)=NN1)c1ccccc1 (stereo not drawn) turned out to be 33 µM

The value of TGI measured for the molecule `CN(C)C(=S)/N=c1\ssc(=Nc2ccccc2)n1-c1ccccc1` turned out to be > 100 µM
